biological target: Cytochrome P450 1A2 (Homo sapiens); test: Cytochrome P450 Family 1 Subfamily A Member 2 (CYP1A2) small molecule antagonists: luciferase reporter qHTS assay (AID 1671199); settings: P450-Glo CYP1A2 enzyme, luciferin luminescence, 1 h; series mostly up to 115 µM; note: nearly all actives have a fitted effect of over 50% in size
Records with an inconclusive call do not appear. Calls of active or inactive are those of the source. Calls come from the whole dose curve; as a rule, active = well fitted inhibition curve with a large enough effect in the repeat runs; inconclusive = weak or mixed curves; inactive = no such curve, though single readings can be large or run the other way.
Outcomes you can answer with include only these: active, inactive

Example entries and their recorded answers appear below.
* Cc1ccc(S(=O)(=O)O)cc1C | inactive
* C=C[C@@]1(C)CC(=O)[C@]2(O)[C@@]3(C)[C@@H](O)CCC(C)(C)[C@@H]3[C@H](O)[C@H](OC(C)=O)[C@@]2(C)O1 | inactive
* COC(=O)CC(=O)OC | inactive
* CC1(C)OC(=O)NC1=O | inactive

Task: Test call for this compound, please: NCCOCCO
Output: inactive

Task: Then C=CC(=O)OCCCC ?
Output: inactive

Task: Then O=C1CCc2ccccc2O1 ?
Output: inactive

Task: Then ClC/C=C/CCl ?
Output: inactive

Task: Then CCOC(=O)C(C)Oc1ccc(Oc2cnc3cc(Cl)ccc3n2)cc1 (stereo unspecified) ?
Output: active

Task: Then Nc1cc([N+](=O)[O-])ccc1C(=O)O ?
Output: inactive

Task: Then O=C(O)c1ccc(O)cc1 ?
Output: inactive

Task: Then CC(=O)OC(C)C ?
Output: inactive

Task: Then C=CN1CCCC1=O ?
Output: inactive

* * *

assay: qHTS RealTime-Glo MT Cell Viability Assay in HEK293 cells - 40 hour (AID 1224874); details: RealTime-Glo luminescence; note: potency is the fitted concentration of half-maximal effect; nearly all actives have a fitted effect of over 50% in size
Records with an inconclusive call do not appear. Calls of active or inactive are those of the source. The call rests on the fitted dose curve; in most records, active means well fitted cell-killing curve with a large enough effect in the repeat runs; inconclusive means weak or mixed curves, or effect the other way; inactive means flat fitted curve, though single readings scatter.
value type: Potency

* O=[Se](O)O | 17.4 µM (active)
* Oc1ccc(C(c2ccc(O)cc2)C(Cl)(Cl)Cl)cc1 | 34.5 µM (active)
* Nc1ccc2c(O)cc(S(=O)(=O)O)cc2c1 | 6.17 µM (active)
* COc1ccc(-c2coc3cc(O)cc(O)c3c2=O)cc1 | 49.4 µM (active)
* CC1(C)NC(=O)N(c2ccc([N+](=O)[O-])c(C(F)(F)F)c2)C1=O | 24.5 µM (active)

Here is another molecule to look at.
Task: Looking for the measured Potency of C=C[C@H]1CN2CC[C@H]1C[C@@H]2[C@@H](O)c1ccnc2ccc(OC)cc12 , can you help?
Output: 48.2 µM (active)

* * *

experiment: qHTS assay to identify small molecule agonists of the hypoxia (HIF-1) signaling pathway (AID 1224846); conditions: HRE-bla ME-180 cells, beta-lactamase ratio, 17 h; series mostly up to 76.8 µM
Records with an inconclusive call do not appear. The source made the active and inactive calls. The call rests on the fitted dose curve; in most records, active means well fitted activation curve with a large enough effect in the signal ratio in the repeat runs (not every such curve was filed as active); inconclusive means weak or mixed curves; inactive means flat fitted curve, though single readings scatter; the % refers to the signal ratio.
value type: outcome

* O=C(O)c1cc(=O)[nH]c(=O)[nH]1 | inactive
* Nc1ccc(N)c(Cl)c1 | inactive
* OC[C@H]1O[C@@H]2O[C@H]3[C@H](O)[C@@H](O)[C@@H](O[C@H]4[C@H](O)[C@@H](O)[C@@H](O[C@H]5[C@H](O)[C@@H](O)[C@@H](O[C@H]6[C@H](O)[C@@H](O)[C@@H](O[C@H]7[C@H](O)[C@@H](O)[C@@H](O[C@H]1[C@H](O)[C@H]2O)O[C@@H]7CO)O[C@@H]6CO)O[C@@H]5CO)O[C@@H]4CO)O[C@@H]3CO | inactive

* * *

test: A CellTox Green Cytotoxicity Assay to monitor cytotoxicity in HepG2 cells - 0 hour (AID 1224882); conditions: CellTox Green fluorescence; series mostly up to 76.8 µM; note: nearly all actives have a fitted effect of over 35% in size
Calls of active or inactive are those of the source. The call rests on the fitted dose curve; in most records, active means well fitted activation curve with a large enough effect in the repeat runs; inconclusive means weak or mixed curves; inactive means flat fitted curve, though single readings scatter.
Outcomes you can answer with include only these: YES (active), NO (inactive)

* Cc1ccc(C)c(O)c1 | NO
* C[C@]12CC[C@@H]3c4ccc(O)cc4CC[C@H]3[C@@H]1CC[C@@H]2O | NO
* CN(C)C | NO
* CCOC(=O)C(C)Oc1ccc(Oc2cnc3cc(Cl)ccc3n2)cc1 (centres undefined) | NO
* COCCOCCOCCO | NO

Task: Test call for this molecule, please: COc1ccc(-c2coc3cc(O)cc(O)c3c2=O)cc1
Output: NO

Task: Then CC(C)(Oc1ccc(Cl)cc1)C(=O)O ?
Output: NO

Task: Then O=C(O)COCCN1CCN(C(c2ccccc2)c2ccc(Cl)cc2)CC1 (centres undefined) ?
Output: NO

Task: Then O=C1OC2(c3ccccc31)c1cc(I)c(O)c(I)c1Oc1c2cc(I)c(O)c1I ?
Output: YES

* * *

test: qHTS assay to identify small molecule agonists of the endoplasmic reticulum stress response signaling pathway (AID 1159516); settings: ESRE-bla HeLa, ER stress beta-lactamase reporter, 5 h; series mostly up to 61 µM
Records with an inconclusive call do not appear. Active and inactive are the calls of the source. The call rests on the fitted dose curve; in most records, active means well fitted activation curve with a large enough effect in the signal ratio in the repeat runs (not every such curve was filed as active); inconclusive means weak or mixed curves, or effect the other way; inactive means flat fitted curve, though single readings scatter; the % refers to the signal ratio.
Outcomes you can answer with include only these: TRUE (active), FALSE (inactive)

Example entries and their recorded answers appear below.
- CC1(C)NC(=O)N(c2ccc([N+](=O)[O-])c(C(F)(F)F)c2)C1=O: FALSE
- CC(C)(C)c1cccc(C(C)(C)C)c1O: FALSE
- c1ccc2c(c1)ccc1cc3c(ccc4ccccc43)cc12: TRUE
- C=C[C@H]1CN2CC[C@H]1C[C@@H]2[C@@H](O)c1ccnc2ccc(OC)cc12: FALSE
- C=CCNCC=C: FALSE

Shifting focus to the molecule that follows.
Task: Test call for this molecule, please: CC(=O)Oc1ccc(C(c2ccc(OC(C)=O)cc2)c2ccccn2)cc1
Output: FALSE

* * *

assay: qHTS assay to identify small molecule antagonists of the TGF-beta/Smad signaling pathway - cell viability counter screen (AID 1346824); settings: SBE-bla HEK293T viability, CellTiter-Glo luminescence; series mostly up to 76.8 µM; note: nearly all actives have a fitted effect of over 50% in size
Records with an inconclusive call do not appear. The source made the active and inactive calls. The call rests on the fitted dose curve; in most records, active means well fitted cell-killing curve with a large enough effect in the repeat runs; inconclusive means weak or mixed curves; inactive means flat fitted curve, though single readings scatter.
value type: outcome

Examples with answers:
* COc1ccc(C(=O)c2ccccc2O)c(O)c1 | inactive
* CC/C(=C(/CC)c1ccc(O)cc1)c1ccc(O)cc1 | inactive
* O=C1OC2(c3ccccc31)c1cc(I)c(O)c(I)c1Oc1c2cc(I)c(O)c1I | inactive
* CCO[Si](CCCNC(N)=O)(OCC)OCC | inactive
* CC1(C)NC(=O)N(c2ccc([N+](=O)[O-])c(C(F)(F)F)c2)C1=O | inactive
* C[C@]12CC[C@@H]3c4ccc(O)cc4CC[C@H]3[C@@H]1CC[C@H]2O | inactive
* [O-]/[N+](=N\O)c1ccccc1 | inactive
* CN(C)C | inactive
* C=CCCCCCCCCCC | inactive
* Oc1c(Cl)ccc(Cl)c1Cl | inactive

Task: Looking for the measured outcome of COc1cc([C@H]2Oc3cc([C@H]4Oc5cc(O)cc(O)c5C(=O)[C@@H]4O)ccc3O[C@@H]2CO)ccc1O , can you help?
Output: inactive

Task: Then C=CC(=O)OCCCC ?
Output: inactive

Task: Then CC/C=C\C/C=C\C/C=C\CCCCCCCC(=O)O ?
Output: inactive

* * *

assay: A CellTox Green Cytotoxicity Assay to monitor cytotoxicity in HEK293 cells - 40 hour (AID 1224871); conditions: CellTox Green fluorescence; series mostly up to 76.8 µM; note: nearly all actives have a fitted effect of over 45% in size
Inconclusive results are not listed. Active and inactive are the calls of the source. Calls follow the shape of the dose curve; as a rule, active = well fitted activation curve with a large enough effect in the repeat runs; inconclusive = weak or mixed curves; inactive = flat fitted curve, though single readings scatter.
value type: outcome

- OC[C@H]1O[C@@H]2O[C@H]3[C@H](O)[C@@H](O)[C@@H](O[C@H]4[C@H](O)[C@@H](O)[C@@H](O[C@H]5[C@H](O)[C@@H](O)[C@@H](O[C@H]6[C@H](O)[C@@H](O)[C@@H](O[C@H]7[C@H](O)[C@@H](O)[C@@H](O[C@H]1[C@H](O)[C@H]2O)O[C@@H]7CO)O[C@@H]6CO)O[C@@H]5CO)O[C@@H]4CO)O[C@@H]3CO: inactive
- CC1(C)C(C=C(Cl)Cl)C1C(=O)OCc1cccc(Oc2ccccc2)c1 (stereo not drawn): inactive
- Oc1c(Cl)ccc(Cl)c1Cl: inactive

* * *

target: Glucocorticoid receptor (Homo sapiens); assay: qHTS assay to identify small molecule antagonists of the glucocorticoid receptor (GR) signaling pathway (AID 720692); details: GR-bla HeLa, beta-lactamase FRET ratio, dexamethasone-stimulated, 18 h; series mostly up to 58.5 µM; note: potency is the fitted concentration of half-maximal effect
Results filed as inconclusive are left out. Activity calls are given as the source filed them. Calls follow the shape of the dose curve; as a rule, active = well fitted inhibition curve with a large enough effect in the signal ratio in the repeat runs (not every such curve was filed as active); inconclusive = weak or mixed curves, or effect the other way; inactive = no such curve, though single readings can be large or run the other way; the % refers to the signal ratio.
value type: Potency

Examples with answers:
• c1ccc2cc3ccccc3cc2c1 = inactive
• C/C=C/C(=O)N(CC)c1ccccc1C = inactive
• COc1ccc2nc(N)sc2c1 = inactive
• COC(=O)CC(=O)OC = inactive
• CC1(C)C(C=C(Cl)Cl)C1C(=O)OCc1cccc(Oc2ccccc2)c1 (stereo not drawn) = inactive
• C[C@]12CC[C@@H]3c4ccc(O)cc4CC[C@H]3[C@@H]1CC[C@H]2O = 6.27 µM (active)
• Brc1nc2ccccc2s1 = inactive
• Cc1ccc(N)c([N+](=O)[O-])c1 = inactive
• CC1(C)OC(=O)NC1=O = inactive
• O=C(O)c1ccc(O)cc1 = inactive

Task: Looking for the measured Potency of Cc1ccc(C)c(O)c1 , can you help?
Output: inactive

Task: Then COCCOCCOCCO ?
Output: inactive

Task: Then NCCOCCO ?
Output: inactive

Task: Then Oc1ccc(C(c2ccc(O)cc2)C(Cl)(Cl)Cl)cc1 ?
Output: 21.9 µM (active)

The origin of these recorded values is PubChem BioAssay (Tox21).
